target: DNAse I; assay: DNAse I inhibitor assay based on NIR emission of 4/QIII ensemble; assay type: biochemical; details: [4]=4 μM, [QIII]=8 μM, [DNAse I]=4 U/ml, NIR emission at 785 nm; read-out: IC50 (DNAse I inhibition)
Structures can show the parent of a compound that is named as a salt.
As shown below, each of these compounds has a reported pIC50 value.
For clarity, pIC50 is expressed as the negative log10 of concentration in mol/L.

Check out these entries, answers already filled in.
INSERT INTO results (compound, recorded_metric, measured_number) VALUES
  ('N=C(N)NNc1ccc(NNC(=N)N)cc1 [JR-132, hydrochloride]', 'pIC50', 5.64),
  ('[Cl-].[Cl-].[Zn+2]', 'pIC50', 4.68);

QUERY: Please list pIC50 recorded for the compound O=C(O)CN(CCN(CC(=O)O)CC(=O)O)CC(=O)O
RESULT: 3.69
